Origin of measurements: patent US6114349A

Tested on: HIV
TEST_NAME: Testing of preparations against HIV in cell culture (giant cell formation in HIV-infected lymphocytes)
Type: cell-based
ASSAY_SETUP: Human immunodeficiency virus 1, 72 h, lowest concentration at which no giant cells occurred, 3 days, 37° C.
MEASURED_PARAMETER: MIC

Some compounds with known MIC results, for comparison:
| STRUCTURE_SMILES | MEASURED_PARAMETER | VALUE_OBSERVED |
| --- | --- | --- |
| CCc1c(C(=O)OC2CCCCC2)c2cc(Cl)ccc2[nH]c1=S | MIC | ~0.4 µg/mL |
| C=CCOC(=O)c1c(CC)c(=S)[nH]c2ccc(Cl)cc12 | MIC | ~0.4 µg/mL |
| Cc1c(C(=O)OC(C)C)c2cc(Cl)ccc2[nH]c1=S | MIC | > 0.04 µg/mL |
| COC(=O)c1c(C)c(=S)[nH]c2ccc(Cl)cc12 | MIC | > 0.2 µg/mL |
| CCc1c(C(=O)OC(C)C)c2ccccc2[nH]c1=S | MIC | 0.2 µg/mL |

Task: Find the measured MIC: item CCc1c(C(=O)OC(C)C)c2cc(Cl)ccc2[nH]c1=S , target or system HIV.
Output: > 0.008 µg/mL

Task: Find the measured MIC: item CCC(CC)OC(=O)c1c(-c2ccccc2)c(=S)[nH]c2ccc(Cl)cc12 , target or system HIV.
Output: > 0.2 µg/mL

Task: Observed MIC on HIV for CC(C)OC(=O)c1c(C(C)C)c(=O)[nH]c2ccccc12 , please.
Output: > 0.2 µg/mL

---

EXPERIMENTAL_SYSTEM: HIV "Reverse Transcriptase" (Human immunodeficiency virus type 1 group M subtype B, UniProt P04585)
Construct: purchased HT Biotechnology LTD, Cambridge, UK; host or cells: E. coli
TEST_NAME: Inhibition of HIV reverse transcriptase, Scintillation Proximity Assay (SPA)
Assay type: biochemical
ASSAY_SETUP: RT-SPA, 60 min, 37° C.; read-out: Reverse Transcriptase Assay IC-50 (converted)
A collection of compounds and their measured IC50
Express the result in nM but write the number alone.

Study these solved cases before continuing.
| COMPOUND | VALUE_OBSERVED |
| --- | --- |
| CC(C)OC(=O)c1c(-c2ccccc2)c(=S)[nH]c2ccc(F)cc12 [Compound 15] | 21 |
| CCc1c(C(=O)OC2CCCCC2)c2cc(Cl)ccc2[nH]c1=S [Compound 70] | 8 |
| C=CCOC(=O)c1c(CC)c(=S)[nH]c2ccc(Cl)cc12 [Compound 71] | 1 |
| CC(C)Cc1c(C(=O)OC(C)C)c2ccccc2[nH]c1=O [Compound 16] | 372 |
| CCOC(=O)c1c(CC)c(=S)[nH]c2ccc(Cl)cc12 [Compound 67] | 1 |

Task: Given the entry CCc1c(C(=O)OC(C)C)c2cc(Cl)ccc2[nH]c1=O [Compound 19] , report its measured IC50.
Output: 94

Task: Look up IC50: CC(C)OC(=O)c1c(C(C)C)c(=S)[nH]c2ccccc12 [Compound 35]
Output: 529

Task: Returns the measured IC50 for the input compound. Input: Cc1c(C(=O)OC(C)C)c2cc(Cl)ccc2[nH]c1=O [Compound 40]
Output: 608

Task: What measured IC50 goes with CC(C)OC(=O)c1c(-c2ccccc2Cl)c(=S)[nH]c2ccccc12 [Compound 61] ?
Output: 26

Task: Bench note: what IC50 did CC(C)OC(=O)c1c(C(C)C)c(=O)[nH]c2ccccc12 [Compound 34] show?
Output: 1520

Task: Find the recorded IC50 belonging to Cc1c(C(=O)OCC2CC2)c2cc(Cl)ccc2[nH]c1=S [Compound 43] and report it.
Output: 26

Task: IC50 lookup needed for CCc1c(C(=O)OC(C)C)c2cc(Cl)ccc2[nH]c1=S [Compound 20] , thanks.
Output: 8

Task: Need IC50 of CC(C)OC(=O)c1c(-c2ccccc2)c(=S)[nH]c2ccc(Cl)cc12 [Compound 6] , thanks.
Output: 22

Task: Name the recorded IC50 for CCc1c(C(=O)OC(C)C)c2ccccc2[nH]c1=S [Compound 5] .
Output: 35

Task: Any idea what IC50 was measured for CCCOC(=O)c1c(C)c(=S)[nH]c2ccc(Cl)cc12 [Compound 45] ?
Output: 34

Task: Need IC50 of CCC(CC)OC(=O)c1c(-c2ccccc2)c(=S)[nH]c2ccc(Cl)cc12 [Compound 18] , thanks.
Output: 29

Task: What measured IC50 goes with CCc1c(C(=O)OC2CCCC2)c2ccccc2[nH]c1=S [Compound 30] ?
Output: 147

---

Tested on: HIV
TEST_NAME: Testing of preparations against HIV in cell culture (giant cell formation in HIV-infected lymphocytes)
Type: cell-based
ASSAY_SETUP: Human immunodeficiency virus 1, 72 h, lowest concentration at which no giant cells occurred, 3 days, 37° C.
MEASURED_PARAMETER: MIC

Would you please look over these solved cases?
| COMPOUND | MIC |
| --- | --- |
| Cc1c(C(=O)OCC2CC2)c2cc(Cl)ccc2[nH]c1=O [Compound 42] | > 0.2 µg/mL |
| Cc1c(C(=O)OC(C)C)c2cc(Cl)ccc2[nH]c1=O [Compound 40] | > 0.04 µg/mL |
| CC(C)OC(=O)c1c(-c2ccccc2Cl)c(=S)[nH]c2ccccc12 [Compound 61] | ~0.08 µg/mL |
| CC(C)OC(=O)c1c(-c2ccccc2)c(=S)[nH]c2ccc(F)cc12 [Compound 15] | > 0.04 µg/mL |
| CC(C)OC(=O)c1c(C(C)C)c(=S)[nH]c2ccccc12 [Compound 35] | > 0.04 µg/mL |
| CCc1c(C(=O)OC2CCCC2)c2ccccc2[nH]c1=S [Compound 30] | ~0.2 µg/mL |
| CC(C)Cc1c(C(=O)OC(C)C)c2ccccc2[nH]c1=O [Compound 16] | > 0.04 µg/mL |
| CCc1c(C(=O)OC(C)C)c2cc(Cl)ccc2[nH]c1=O [Compound 19] | ~0.2 µg/mL |

Task: Give the measured MIC of CCCOC(=O)c1c(C)c(=S)[nH]c2ccc(Cl)cc12 [Compound 45] .
Output: < 0.2 µg/mL
